- Test: self-splicing fitness, log relative to wild type (ln ratio); higher = more splicing; Tetrahymena group I intron in knt gene, E. coli kanamycin selection, DiMSum; sequences stand for … in CUCUCU…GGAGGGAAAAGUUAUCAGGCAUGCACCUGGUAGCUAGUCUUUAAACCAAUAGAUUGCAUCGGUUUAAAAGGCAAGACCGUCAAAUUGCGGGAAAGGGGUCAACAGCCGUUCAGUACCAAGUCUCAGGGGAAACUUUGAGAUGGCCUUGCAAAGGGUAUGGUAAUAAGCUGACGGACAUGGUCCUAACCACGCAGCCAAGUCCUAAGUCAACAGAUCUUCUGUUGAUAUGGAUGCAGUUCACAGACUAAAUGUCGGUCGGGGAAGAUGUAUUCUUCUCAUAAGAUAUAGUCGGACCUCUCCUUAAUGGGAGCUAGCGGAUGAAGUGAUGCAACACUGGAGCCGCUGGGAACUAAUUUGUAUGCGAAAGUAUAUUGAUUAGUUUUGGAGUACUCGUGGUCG;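 further: selection with 25 µg/mL kanamycin versus none on LB agar overnight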
- Condition parameters: 30 °C
Observation type: self-splicing fitness (ln)
Field format: numeric only.

# count of solved cases: 3
{"columns": ["Biopolymer sequence", "self-splicing fitness (ln)"],
 "data": [
  ["ACCUAGCAAUAUUACGCGCC", -0.396],
  ["GCACAGCAAUAUUACGUGUA", -1.03],
  ["AGAGAGCAAUAUUACGCUCU", -2.47]
]}

Notebook: CUAUAGCAAUAUUACGUCUA , self-splicing fitness (ln) read as -3.05

----------
- Test: self-splicing fitness, log relative to wild type (ln ratio); higher = more splicing; Tetrahymena group I intron in knt gene, E. coli kanamycin selection, DiMSum; sequences stand for … in CUCUCU…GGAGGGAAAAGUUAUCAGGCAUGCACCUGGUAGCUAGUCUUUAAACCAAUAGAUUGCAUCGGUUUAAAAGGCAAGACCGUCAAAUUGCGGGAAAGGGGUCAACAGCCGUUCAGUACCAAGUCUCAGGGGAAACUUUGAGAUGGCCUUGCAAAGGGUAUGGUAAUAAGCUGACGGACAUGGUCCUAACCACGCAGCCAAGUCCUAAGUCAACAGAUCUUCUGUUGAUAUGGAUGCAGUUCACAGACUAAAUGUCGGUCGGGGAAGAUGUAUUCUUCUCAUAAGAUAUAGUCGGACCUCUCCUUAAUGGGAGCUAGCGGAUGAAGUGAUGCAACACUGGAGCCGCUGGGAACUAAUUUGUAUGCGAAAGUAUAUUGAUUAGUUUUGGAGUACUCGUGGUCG
- Condition parameters: 37 °C
Observation type: self-splicing fitness (ln)
Field format: numeric only.

{"columns": ["Biopolymer sequence", "Value observed"],
 "data": [
  ["CUGCAGCAAUAUUACGGUAC", -1.81],
  ["GUUUAGCAAUAUUACGUGUG", -1.36],
  ["AUCCAGCAAUAUUACGUAGU", -0.703],
  ["AACAAGCAAUAUUACGCAAU", -1.09],
  ["AAUUAGCAAUAUUACGAUGA", -0.429]
]}

Notebook: AAACAGCAAUAUUACGGUUA , self-splicing fitness (ln) read as -0.167

Notebook: GCUGAGCAAUAUUACGGGCC , self-splicing fitness (ln) read as -2.27

----------
self-splicing fitness (ln) values by entry
- Test: self-splicing fitness, log relative to wild type (ln ratio); higher = more splicing; Tetrahymena group I intron in knt gene, E. coli kanamycin selection, DiMSum; sequences stand for … in CUCUCU…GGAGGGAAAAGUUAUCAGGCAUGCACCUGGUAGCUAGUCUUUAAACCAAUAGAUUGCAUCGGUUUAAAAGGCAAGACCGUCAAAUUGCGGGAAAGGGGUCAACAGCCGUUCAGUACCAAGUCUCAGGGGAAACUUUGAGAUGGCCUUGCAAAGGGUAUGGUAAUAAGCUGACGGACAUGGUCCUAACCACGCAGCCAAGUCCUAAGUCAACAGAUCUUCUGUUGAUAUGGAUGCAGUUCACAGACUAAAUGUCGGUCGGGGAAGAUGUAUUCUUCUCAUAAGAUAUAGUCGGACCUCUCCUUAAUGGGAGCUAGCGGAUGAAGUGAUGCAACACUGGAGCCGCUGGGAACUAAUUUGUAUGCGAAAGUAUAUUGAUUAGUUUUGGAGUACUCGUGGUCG
- Condition parameters: 37 °C
Field format: numeric only.

# count of solved cases: 5
{"columns": ["Biopolymer sequence", "Value observed"],
 "data": [
  ["AUGAAGCAAUAUUACGUGGA", -1.45],
  ["UGGAAGCAAUAUUACGAAUA", -0.685],
  ["CGCGAGCAAUAUUACGAACA", -1.19],
  ["AAUAAGCAAUAUUACGCGGA", -1.33],
  ["UUUGAGCAAUAUUACGCGUU", -2.86]
]}

Notebook: AUGUAGCAAUAUUACGGCGA , self-splicing fitness (ln) read as -0.00452

Notebook: CGCAAGCAAUAUUACGUGGG , self-splicing fitness (ln) read as -3.16

Notebook: UCGGAGCAAUAUUACGGGAC , self-splicing fitness (ln) read as -1.99

Notebook: GUUCAGCAAUAUUACGGCUU , self-splicing fitness (ln) read as 0.571

Notebook: GUGGAGCAAUAUUACGAUGA , self-splicing fitness (ln) read as -1.39

Notebook: CCCUAGCAAUAUUACGCAAA , self-splicing fitness (ln) read as -3.49

----------
- Test: self-splicing fitness, log relative to wild type (ln ratio); higher = more splicing; Tetrahymena group I intron in knt gene, E. coli kanamycin selection, DiMSum; sequences stand for … in CUCUCU…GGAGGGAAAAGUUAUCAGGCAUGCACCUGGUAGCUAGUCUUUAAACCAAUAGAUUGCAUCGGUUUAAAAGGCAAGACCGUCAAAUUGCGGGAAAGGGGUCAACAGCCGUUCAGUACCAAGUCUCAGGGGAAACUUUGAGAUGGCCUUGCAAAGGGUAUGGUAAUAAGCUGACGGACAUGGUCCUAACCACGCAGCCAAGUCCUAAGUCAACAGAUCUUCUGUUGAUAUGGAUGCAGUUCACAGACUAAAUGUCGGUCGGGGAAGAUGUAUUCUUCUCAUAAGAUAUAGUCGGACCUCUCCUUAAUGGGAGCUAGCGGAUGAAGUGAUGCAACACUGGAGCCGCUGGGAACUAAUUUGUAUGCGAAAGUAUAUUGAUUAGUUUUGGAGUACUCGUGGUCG
- Condition parameters: 37 °C
Observation type: self-splicing fitness (ln)
Field format: numeric only.

{"columns": ["Biopolymer sequence", "Value observed"],
 "data": [
  ["UCCGAGCAAUAUUACGGCAG", -1.44],
  ["GCGUAGCAAUAUUACGUAGU", -0.677],
  ["AUCUAGCAAUAUUACGUUCA", -0.242],
  ["AAGGAGCAAUAUUACGUAGG", -2.02],
  ["CGUUAGCAAUAUUACGUCAG", 0.0149],
  ["GCAGAGCAAUAUUACGUUGA", -2.15]
]}

Notebook: AUUUAGCAAUAUUACGGCCC , self-splicing fitness (ln) read as -0.289

Notebook: AACCAGCAAUAUUACGGCGC , self-splicing fitness (ln) read as -0.103

Notebook: UCUCAGCAAUAUUACGCUCU , self-splicing fitness (ln) read as -2.68

Notebook: AUAGAGCAAUAUUACGGUUC , self-splicing fitness (ln) read as -1.29

Notebook: GGUCAGCAAUAUUACGACUC , self-splicing fitness (ln) read as -1.61

Notebook: CGGCAGCAAUAUUACGGUCA , self-splicing fitness (ln) read as -0.156

Notebook: GCUUAGCAAUAUUACGGUUA , self-splicing fitness (ln) read as -0.548

Notebook: AUUCAGCAAUAUUACGCCCU , self-splicing fitness (ln) read as 0.287

Notebook: GAGAAGCAAUAUUACGGCCG , self-splicing fitness (ln) read as -0.256

Notebook: GACUAGCAAUAUUACGCCCU , self-splicing fitness (ln) read as -0.315

Notebook: UGAAAGCAAUAUUACGGGGG , self-splicing fitness (ln) read as -2.89

Notebook: CGUAAGCAAUAUUACGACUC , self-splicing fitness (ln) read as -0.95

Notebook: UGUUAGCAAUAUUACGCAUA , self-splicing fitness (ln) read as -0.397

Notebook: GGUGAGCAAUAUUACGUGAU , self-splicing fitness (ln) read as -1.71

Notebook: GCGCAGCAAUAUUACGACUC , self-splicing fitness (ln) read as 0.304

Notebook: ACAUAGCAAUAUUACGGAGA , self-splicing fitness (ln) read as -2.47

----------
self-splicing fitness (ln) values by entry
- Test: self-splicing fitness, log relative to wild type (ln ratio); higher = more splicing; Tetrahymena group I intron in knt gene, E. coli kanamycin selection, DiMSum; sequences stand for … in CUCUCU…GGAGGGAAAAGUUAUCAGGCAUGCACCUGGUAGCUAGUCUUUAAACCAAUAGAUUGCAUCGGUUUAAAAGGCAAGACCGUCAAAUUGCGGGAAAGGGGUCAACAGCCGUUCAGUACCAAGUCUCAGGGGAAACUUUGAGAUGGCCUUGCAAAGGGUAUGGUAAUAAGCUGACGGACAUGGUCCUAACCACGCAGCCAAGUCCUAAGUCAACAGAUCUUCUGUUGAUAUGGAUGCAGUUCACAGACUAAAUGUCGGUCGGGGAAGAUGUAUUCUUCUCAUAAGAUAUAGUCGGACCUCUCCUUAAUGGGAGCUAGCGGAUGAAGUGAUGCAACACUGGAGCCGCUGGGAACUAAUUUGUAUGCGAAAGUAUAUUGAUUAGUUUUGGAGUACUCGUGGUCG
- Condition parameters: 30 °C
Field format: numeric only.

# count of solved cases: 7
{"columns": ["Biopolymer sequence", "self-splicing fitness (ln)"],
 "data": [
  ["ACAAAGCAAUAUUACGCUGU", -2.48],
  ["UGCCAGCAAUAUUACGCGGU", -2.55],
  ["AAUUAGCAAUAUUACGGUUA", -0.622],
  ["CAUAAGCAAUAUUACGUAUC", -2.78],
  ["CCGGAGCAAUAUUACGACAA", -3.72],
  ["AUAGAGCAAUAUUACGUUCA", 0.258],
  ["ACCAAGCAAUAUUACGUGGG", -3.46]
]}

# ---- query sequence ----
Notebook: ACACAGCAAUAUUACGGUAG , self-splicing fitness (ln) read as -4
